Would you mind telling me the reported log10 of MIC of each entry?
Test system: Klebsiella pneumoniae
Experiment: Antibacterial activity against carbapenemase-producing Klebsiella pneumoniae isolate K9 after 16 to 20 hrs by broth microdilution method
Type: functional
Recorded MIC (log10, µg/mL)

Exercise: Indicate its recorded log10 of MIC; the compound in question is CCCCCCCCN(CCCCCCCC)C(=O)[C@@H](N)CCCCN.Cl.Cl
Key: 0.30

Exercise: State its log10 of MIC: CCCCCCCCCCN(CCCCCCCCCC)C(=O)[C@@H](N)CCCN=C(N)N.Cl.Cl.Cl
Key: 0.60

Exercise: Answer with reported log10 of MIC of CCCCCCCN(CCCCCCC)C(=O)[C@@H](N)CCCCN.Cl.Cl
Key: 1.20

Exercise: Entry CCCCCCCCN(CCCCCCCC)C(=O)[C@@H](N)CO.Cl needs its log10 of MIC filled in; supply it.
Key: 1.51

Exercise: # return recorded log10 of MIC for input CCCCCCCCN(CCCCCCCC)C(=O)[C@@H](N)CCCN=C(N)N.Cl.Cl.Cl
Key: 0.90

Exercise: Answer with reported log10 of MIC of CCCCCCCCCN(CCCCCCCCC)C(=O)[C@@H](N)CCCCN.Cl.Cl
Key: 0.30

Exercise: Quick one: give measured log10 of MIC for CCCCCCCCN(CCCCCCCC)C(=O)[C@H](N)CO.Cl
Key: 1.51
